Numbers sourced from patent US20060189528A1.

RANKL fold change cf wt overview
Experimental System: T1, RANKL (human, UniProt O14788 140-317, limits assumed)
T1 construct: also called Rank ligand
T1 sequence (looked up): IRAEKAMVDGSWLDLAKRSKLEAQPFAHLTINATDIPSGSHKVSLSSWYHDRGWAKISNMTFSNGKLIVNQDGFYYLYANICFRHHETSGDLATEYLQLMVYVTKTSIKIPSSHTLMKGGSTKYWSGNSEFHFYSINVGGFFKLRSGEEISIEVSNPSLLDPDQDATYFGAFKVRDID
Assay Text: ELISA on coated RANKL, Fc-linked dimers; EC50 ratio to OPG(22-194).Fc wt; reduction in binding (higher EC50)
Procedure: Purified mammalian-expressed OVP proteins are tested for binding to RANKL and TRAIL by ELISA. Wells are coated with RANKL at 5 μg/mL or TRAIL at 10 μg/mL in PBS O/N at 4° C., rinsed with PBS, blocked with 0.5% casein in PBS at room temp for 2 h, then rinsed again with PBS. […] TMB is used as enzyme substrate and then binding signal is measured at A_{450 nm}.

{"Binder": "OVP I115E (Fc fusion, Tested as C-terminal Fc-linked dimer with FLAG tag, from HEK 293 EBNA cells; signal peptide 1-21 processed; not shown: human Fc domain of vector pAPEX-3.Fc; C-terminal FLAG tag) ETFPPKYLHYDEETSHQLLCDKCPPGTYLKQHCTAKWKTVCAPCPDHYYTDSWHTSDECLYCSPVCKELQYVKQECNRTHNRVCECKEGRYLEEEFCLKHRSCPPGFGVVQAGTPERNTVCKRCPDGFFSNETSSKAPCRKHTNCSVFGLLLTQKGNATHDNICSGNSESTQK", "RANKL fold change cf wt, fold": 2.25}
{"Binder": "OVP I115M, F128I (Fc fusion, Tested as C-terminal Fc-linked dimer with FLAG tag, from HEK 293 EBNA cells; signal peptide 1-21 processed; also called I115M plus: F128I; not shown: human Fc domain of vector pAPEX-3.Fc; C-terminal FLAG tag) ETFPPKYLHYDEETSHQLLCDKCPPGTYLKQHCTAKWKTVCAPCPDHYYTDSWHTSDECLYCSPVCKELQYVKQECNRTHNRVCECKEGRYLEMEFCLKHRSCPPGIGVVQAGTPERNTVCKRCPDGFFSNETSSKAPCRKHTNCSVFGLLLTQKGNATHDNICSGNSESTQK", "RANKL fold change cf wt, fold": 2.1}
{"Binder": "OVP I115R (Fc fusion, Tested as C-terminal Fc-linked dimer with FLAG tag, from HEK 293 EBNA cells; signal peptide 1-21 processed; not shown: human Fc domain of vector pAPEX-3.Fc; C-terminal FLAG tag) ETFPPKYLHYDEETSHQLLCDKCPPGTYLKQHCTAKWKTVCAPCPDHYYTDSWHTSDECLYCSPVCKELQYVKQECNRTHNRVCECKEGRYLEREFCLKHRSCPPGFGVVQAGTPERNTVCKRCPDGFFSNETSSKAPCRKHTNCSVFGLLLTQKGNATHDNICSGNSESTQK", "RANKL fold change cf wt, fold": 2.3}
{"Binder": "OVP I115M, F128T (Fc fusion, Tested as C-terminal Fc-linked dimer with FLAG tag, from HEK 293 EBNA cells; signal peptide 1-21 processed; also called I115M plus: F128T; not shown: human Fc domain of vector pAPEX-3.Fc; C-terminal FLAG tag) ETFPPKYLHYDEETSHQLLCDKCPPGTYLKQHCTAKWKTVCAPCPDHYYTDSWHTSDECLYCSPVCKELQYVKQECNRTHNRVCECKEGRYLEMEFCLKHRSCPPGTGVVQAGTPERNTVCKRCPDGFFSNETSSKAPCRKHTNCSVFGLLLTQKGNATHDNICSGNSESTQK", "RANKL fold change cf wt, fold": 3.3}
{"Binder": "OVP I115K (Fc fusion, Tested as C-terminal Fc-linked dimer with FLAG tag, from HEK 293 EBNA cells; signal peptide 1-21 processed; not shown: human Fc domain of vector pAPEX-3.Fc; C-terminal FLAG tag) ETFPPKYLHYDEETSHQLLCDKCPPGTYLKQHCTAKWKTVCAPCPDHYYTDSWHTSDECLYCSPVCKELQYVKQECNRTHNRVCECKEGRYLEKEFCLKHRSCPPGFGVVQAGTPERNTVCKRCPDGFFSNETSSKAPCRKHTNCSVFGLLLTQKGNATHDNICSGNSESTQK", "RANKL fold change cf wt, fold": 60}
